MEASUREMENT TARGET: T1, human NMUR1 (human, UniProt Q9HB89 1-426)
T1 sequence (looked up): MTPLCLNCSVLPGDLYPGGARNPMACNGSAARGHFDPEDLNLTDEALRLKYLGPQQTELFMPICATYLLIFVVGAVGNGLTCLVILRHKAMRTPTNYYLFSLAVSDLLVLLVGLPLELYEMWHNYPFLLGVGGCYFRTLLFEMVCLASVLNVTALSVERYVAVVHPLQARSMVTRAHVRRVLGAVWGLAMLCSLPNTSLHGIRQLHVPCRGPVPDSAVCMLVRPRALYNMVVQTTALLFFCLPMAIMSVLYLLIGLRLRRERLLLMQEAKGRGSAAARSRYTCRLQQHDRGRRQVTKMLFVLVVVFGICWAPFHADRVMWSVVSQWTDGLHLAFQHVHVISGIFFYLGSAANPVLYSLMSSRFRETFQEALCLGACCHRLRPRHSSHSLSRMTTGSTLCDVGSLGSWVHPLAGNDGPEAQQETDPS
ASSAY PROTOCOL: cell-based or functional assay
*: point of attachment. (PEG)2 40 kDa = branched PEG of 40 kDa linked via the Cys side-chain thiol (code C2 = Cys(PEG)2 40 kDa); Cholesteroyl = cholesterol linked to a cysteine residue via the side-chain thiol; Succinimide(1-Et,3-yl) = CCN1C(=O)CC(*)C1=O
Catalogue of binders with associated % Activity (FLIPR)
Response body: numeric value in %, unit text excluded.

Recorded % Activity (FLIPR), per entry:
[[record]]
binder = "Ac-C((PEG)2 40 kDa)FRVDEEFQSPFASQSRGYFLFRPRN-NH2 [NMU12]"
recorded_metric = "% Activity (FLIPR)"
unit_string = "%"
test_value = 92.9

[[record]]
binder = "Ac-C((PEG)2 40 kDa)ASQSRGYFLFRPRN-NH2 [NMU18]"
recorded_metric = "% Activity (FLIPR)"
unit_string = "%"
test_value = 97.1

[[record]]
binder = "Ac-C(Succinimide(1-Et,3-yl))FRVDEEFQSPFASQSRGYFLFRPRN-NH2 [NMU8]"
recorded_metric = "% Activity (FLIPR)"
unit_string = "%"
test_value = 99.1

[[record]]
binder = "Ac-C(Cholesteroyl)GYFLFRPRN-NH2 [NMU11]"
recorded_metric = "% Activity (FLIPR)"
unit_string = "%"
test_value = 20.6

[[record]]
binder = "Ac-C((PEG)2 40 kDa)GYFLFRPRN-NH2 [NMU7]"
recorded_metric = "% Activity (FLIPR)"
unit_string = "%"
test_value = 91.4


Now look at this one.
Quick note, % Activity (FLIPR) for Ac-C(Succinimide(1-Et,3-yl))ASQSRGYFLFRPRN-NH2 (SMILES CCN1C(=O)CC(SC[C@H](NC(C)=O)C(=O)N[C@@H](C)C(=O)N[C@@H](CO)C(=O)N[C@@H](CCC(N)=O)C(=O)N[C@@H](CO)C(=O)N[C@@H](CCCNC(=N)N)C(=O)NCC(=O)N[C@@H](Cc2ccc(O)cc2)C(=O)N[C@@H](Cc2ccccc2)C(=O)N[C@@H](CC(C)C)C(=O)N[C@@H](Cc2ccccc2)C(=O)N[C@@H](CCCNC(=N)N)C(=O)N2CCC[C@H]2C(=O)N[C@@H](CCCNC(=N)N)C(=O)N[C@@H](CC(N)=O)C(N)=O)C1=O) [NMU17] landed at 100

Taken from patent US20070244048A1.
